Kindly state binding signal for each of the entries shown.
Molecular target: T1, UNK ZnF1-6 (called full-length) (human, UniProt Q9C0B0 30-357)
T1 sequence: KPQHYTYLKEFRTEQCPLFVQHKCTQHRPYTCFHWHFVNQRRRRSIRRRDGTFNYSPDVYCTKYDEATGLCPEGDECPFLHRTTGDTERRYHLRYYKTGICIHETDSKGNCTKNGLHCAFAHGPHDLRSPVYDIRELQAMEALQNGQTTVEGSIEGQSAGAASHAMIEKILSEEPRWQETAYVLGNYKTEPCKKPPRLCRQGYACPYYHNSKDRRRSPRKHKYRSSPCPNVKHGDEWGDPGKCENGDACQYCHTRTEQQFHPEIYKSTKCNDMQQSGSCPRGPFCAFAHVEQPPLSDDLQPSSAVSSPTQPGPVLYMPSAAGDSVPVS
Test: nsRBNS (natural sequence RNA bind-n-seq); RBNS binding buffer (assumed for nsRBNS): 25 mM Tris pH 7.5, 150 mM KCl, 3 mM MgCl2, 0.01% Triton X-100, 500 ug/ml BSA, 20 U/ml SUPERase-In, 4 C; UNK is unkempt and MSI1 is Musashi-1; names of the RNAs are library labels; protein concentration not given here; high values mean tight binding
Whole data set: some 5,800 sequences, median “enrichment r” near 0.68, cut for the highest 2% near 11. What follows is part of a selection rich in the highest values, with near analogues and random picks from the rest.
Value expressed in enrichment R; do not type the unit.

Query: Determine its reported binding signal: chr2:231108229:231108516:-|three_prime_utr|ENSG00000135914|control|control|control (ssRNA) RNA: GGGAGUUCUACAGUCCGACGAUCAAGAAUAUCUAAUUUUCCUAAUUUGGACAAGAUUAUUCCAUGAGGAAAAUAAUUUUAUAUAGCUACAAAUGAAAACAAUCCAGCACUCUGGUUAAAUUUUAAGGUAUUCGAAUGAAAUAACAACAGAGGAUUGAGCAUCA
Reply: 1.88

Query: Determine its reported binding signal: chr20:3963869:3963970:-|CDS|ENSG00000101236|unk|total|mutant (ssRNA) RNA: GGGAGUUCUACAGUCCGACGAUCAAUCUGCCUCUCAACAUAUAUAUUGUGGUUUUUGGUACUGCUAUAUUUGUCUUCAUCCUCCGUUUACUCUUCUGUUGCUACUUGAUCCGGUAACCAAUUUUCAUUCUAUGUUACUUCAAACAACAGAGGAUUGAGCAUCA
Reply: 0.575

Query: Determine its reported binding signal: chr8:6811200:6812339:-|CDS|ENSG00000275591|control|control|control (ssRNA) RNA: GGGAGUUCUACAGUCCGACGAUCAUGUAGAGGCUUCUGCCCCAGUGCAGGCUUCCCUGGAAGAACCCUCAGUAUCUCAGAGCUAGAGGAGCCGCUGGAGCCCAAAAGGGAGCUAAGUCACCAUGCAGCUGUUGGUGUGUGGGUCAACAGAGGAUUGAGCAUCA
Reply: 0.868

# credit: paper PMC12136788
